biological target: Aβ1-42 polypeptide (human); test: cell-based or functional assay
Sequence (peptide, as listed by the source): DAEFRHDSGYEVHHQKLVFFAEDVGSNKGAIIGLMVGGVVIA
Endpoint Label: relative value of LDH release (SHSY5Y cells with Aβ; hIgG = 1.00)

[[record]]
binder = "066-4.26.14H5L3 (antibody, human IgG1, V domains shown, Humanized full-length antibody; human IgG1 heavy constant and human kappa light constant (vectors pGS003-hIgG1CH, pGS003-hIgKCL)) VH: EVQLVESGGGLVQPGGSLRLSCVASGFTFRSYAMSWVRQAPGKGLEWVASISTTSNTYYPDSVKGRFTTSRDNSKNTVYLQMSSLRAEDTAVYYCGRGVITNQAWFAYWGQGTLVTVSS VL: DIVLTQSPDFQSVTPKEKVTISCRASQSISNNLHWYQQKPDQSPKLLIKYASQSISGIPSRFSGSGSGTDFTLTINSLEAEDAAAYFCQQSNSWPLTFGPGTKVEIKR"
meas_value = "1.41 relative to hIgG"

[[record]]
binder = "066-4.26.14H2L3 (antibody, human IgG1, V domains shown, Humanized full-length antibody; human IgG1 heavy constant and human kappa light constant (vectors pGS003-hIgG1CH, pGS003-hIgKCL)) VH: EVQLVESGGGLVKPGGSLRLSCAASGFTFRSYAMSWVRQTPEKRLEWVASISTTSNTYYPDSVKGRFTTSRDNAKNSVYLQMSSLRAEDTAVYYCGRGVITNQAWFAYWGQGTTVTVSS VL: DIVLTQSPDFQSVTPKEKVTISCRASQSISNNLHWYQQKPDQSPKLLIKYASQSISGIPSRFSGSGSGTDFTLTINSLEAEDAAAYFCQQSNSWPLTFGPGTKVEIKR"
meas_value = "1.42 relative to hIgG"

[[record]]
binder = "066-4.26.14H5L1 (antibody, human IgG1, V domains shown, Humanized full-length antibody; human IgG1 heavy constant and human kappa light constant (vectors pGS003-hIgG1CH, pGS003-hIgKCL)) VH: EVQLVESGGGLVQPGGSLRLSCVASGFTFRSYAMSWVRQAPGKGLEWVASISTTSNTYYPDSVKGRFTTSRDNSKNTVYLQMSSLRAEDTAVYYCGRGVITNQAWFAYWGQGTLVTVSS VL: DIVLTQSPATLSVSPGERVTLSCRASQSISNNLHWYQQKSGQAPRLLIKYASQSISGIPSRFSGSGSGTDFTLTISSLQSEDFAVYFCQQSNSWPLTFGGGTQVEIKR"
meas_value = "1.37 relative to hIgG"

